molecular target: T1, biotin-labeled CD47 extracellular domain protein (CD47-ECD) (UniProt Q08722 19-139, limits assumed, biotin-labeled (sites not given)); test: blocking ELISA, biotin-CD47-ECD on coated SIRPα-hFc; Ab 0.064 nM
T1 construct: extracellular domain; also called CD47 protein
T1 sequence (Q08722 19-139 limits assumed): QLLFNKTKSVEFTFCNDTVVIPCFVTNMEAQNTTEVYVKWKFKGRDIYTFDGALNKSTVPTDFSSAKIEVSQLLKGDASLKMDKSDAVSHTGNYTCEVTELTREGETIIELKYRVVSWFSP

>  <binder>
25E3B5 (antibody, V domains shown, Murine hybridoma antibody purified on protein G) VH: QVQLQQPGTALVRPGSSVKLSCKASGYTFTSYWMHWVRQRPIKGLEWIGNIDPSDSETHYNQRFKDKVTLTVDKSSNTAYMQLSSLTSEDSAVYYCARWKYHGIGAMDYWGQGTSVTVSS VL: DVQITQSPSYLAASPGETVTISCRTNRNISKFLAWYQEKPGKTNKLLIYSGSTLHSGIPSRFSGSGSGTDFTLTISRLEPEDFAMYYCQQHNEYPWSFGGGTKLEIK

>  <OD450 nm of CD47 bound to SIRPα>
2.5

$$$$

Cited source: patent US20220017615A1
